target: TRIM25 CC-PRY/SPRY triple mutant (UniProt Q14258 189-630, H505E;K508E;K602E); assay: ITC; first of two fitted sites; ITC and filter binding: 20 mM MES pH 6.5, 75 mM NaCl, 0.5 mM TCEP (ITC 20 C, filter binding on ice); NMR: 20 mM Na phosphate pH 6.5, 150 mM NaCl, 2 mM TCEP, 293 K; conditions: protein: recombinant; tags: His-Trx (removed); chain copies: 2; hairpin
Sequence (Q14258 189-630 H505E/K508E/K602E): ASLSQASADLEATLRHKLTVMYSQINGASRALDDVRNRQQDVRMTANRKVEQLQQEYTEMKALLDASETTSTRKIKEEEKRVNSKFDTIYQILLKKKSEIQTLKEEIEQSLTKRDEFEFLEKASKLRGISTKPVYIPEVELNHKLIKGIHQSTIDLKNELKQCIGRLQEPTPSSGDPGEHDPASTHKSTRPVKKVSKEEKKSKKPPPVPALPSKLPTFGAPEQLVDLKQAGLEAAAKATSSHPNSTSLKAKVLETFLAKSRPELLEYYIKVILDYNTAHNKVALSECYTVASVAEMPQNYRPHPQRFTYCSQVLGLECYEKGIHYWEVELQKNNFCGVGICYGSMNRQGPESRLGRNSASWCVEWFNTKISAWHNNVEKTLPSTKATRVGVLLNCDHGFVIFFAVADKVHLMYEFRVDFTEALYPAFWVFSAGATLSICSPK
measurementType: pKd
Answer as the number alone; pKd is minus log10 of concentration in mol/L.

### Prompt // returns reported pKd for input GUAUAGUUUAAAAGGAGAUAACUAUAC (structured_RNA) [pre-let-7a-1@2]
### Response 6.10
